The reported numbers originate from ChEMBL document CHEMBL5260794.

# Organism: Rattus norvegicus
# procedureText: Neuroprotective activity against oxygen glucose deprivation/reperfusion-induced Wistar rat cortical brain assessed as reduction in glutamate release relative to control
# Assay type: functional
# Set-up: concentration or dose not given beside the values
Active and inactive are the calls of the source. The calls are words filed in the database; no cut-off is given here.

{"itemSmiles": "C/C(=N\\C1=Nc2ccccc2SC1)N(C)C", "Activity": "inactive"}
{"itemSmiles": "CN/C(C)=N/C1=Nc2ccccc2SC1", "Activity": "25.5%"}
{"itemSmiles": "C/C(=N\\C1=Nc2ccccc2CS1)N(C)C", "Activity": "72.7%"}
{"itemSmiles": "CCCN(CCC)/C(C)=N/C1=Nc2ccccc2CS1", "Activity": "90.5%"}
{"itemSmiles": "CCCN(CCC)/C(C)=N/C1=Nc2ccccc2SC1", "Activity": "inactive"}
{"itemSmiles": "CCN(CC)/C(C)=N/C1=Nc2ccccc2CS1", "Activity": "100%"}
{"itemSmiles": "CN/C(C)=N/C1=Nc2ccccc2CS1", "Activity": "43.6%"}
{"itemSmiles": "CCCN(CCC)/C(C)=N/C1=Nc2ccc(OC(F)(F)F)cc2CS1", "Activity": "17.8%"}
{"itemSmiles": "CCN(CC)/C(C)=N/C1=Nc2ccc(OC(F)(F)F)cc2CS1", "Activity": "inactive"}
{"itemSmiles": "NC1=Nc2ccc(OC(F)(F)F)cc2CS1", "Activity": "69.1%"}
{"itemSmiles": "CCCNC(=S)NC1=Nc2ccccc2CS1", "Activity": "45.7%"}
{"itemSmiles": "CCN(CC)/C(C)=N/C1=Nc2ccccc2SC1", "Activity": "inactive"}
